Target: UniProt:P24008
Sequence (P24008 1-259): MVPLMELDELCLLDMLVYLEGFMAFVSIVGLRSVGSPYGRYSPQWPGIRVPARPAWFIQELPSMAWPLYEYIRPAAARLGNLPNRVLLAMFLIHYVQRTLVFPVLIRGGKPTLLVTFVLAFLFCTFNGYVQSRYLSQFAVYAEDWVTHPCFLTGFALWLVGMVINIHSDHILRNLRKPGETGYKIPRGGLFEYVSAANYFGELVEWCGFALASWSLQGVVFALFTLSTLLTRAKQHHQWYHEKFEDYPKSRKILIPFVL
Test: Assay for testosterone 5α-reductase inhibitory activity (rat liver S9 fractions, HPLC of remaining testosterone)
Type: biochemical
Conditions: 10 μM; mean ± S.E.M. (N = 3–4); read-out: Inhibition (%)
measured-metric: inhibition at 10 µM (%)

>  <compound>
CCCC(=O)c1c(O)c(CC=C(C)C)c2oc(=O)cc([C@@H](O)CC)c2c1O

>  <units-text>
%

>  <reported-value>
11.5

$$$$
>  <compound>
CCCC(=O)c1c(O)c(C/C=C(\C)CCC=C(C)C)c(O)c2c([C@H](CC)OC(C)=O)cc(=O)oc12

>  <units-text>
%

>  <reported-value>
40.8

$$$$
>  <compound>
CCC(C)C(=O)c1c(O)c(CC=C(C)C)c2oc(=O)cc([C@@H](O)CC)c2c1O (stereo partly shown)

>  <units-text>
%

>  <reported-value>
41

$$$$
>  <compound>
CCCC(=O)c1c2c(c3oc(=O)cc(-c4ccccc4)c3c1O)CC(C(C)(C)O)O2 (stereo not shown)

>  <units-text>
%

>  <reported-value>
18.4

$$$$
>  <compound>
CC[C@H](O)c1cc(=O)oc2c(CC=C(C)C)c(O)c(C(=O)CC(C)C)c(O)c12

>  <units-text>
%

>  <reported-value>
37.5

$$$$

[1] CC(C)CC(=O)c1c2c(c3oc(=O)cc(-c4ccccc4)c3c1O)CC(C(C)(C)O)O2 (stereo not shown)
[2] CC[C@H](OC(C)=O)c1cc(=O)oc2c(C(=O)CC(C)C)c(O)c(C/C=C(\C)CCC=C(C)C)c(O)c12
[3] CC(C)=CCC/C(C)=C/Cc1c(O)c(C(=O)C(C)C)c2oc(=O)cc3c2c1OC(C)C3 (stereo not shown)
[4] CCC(C)C(=O)c1c(O)c(C/C=C(\C)CCC=C(C)C)c(O)c2c([C@@H](O)CC)cc(=O)oc12 (stereo partly shown)
**Query** Could you please order the items by inhibition at 10 µM, going from the lowest number to the highest? # list labels per requested ordering
**Result** 3, 1, 2, 4
(3: 8.8%, 1: 21.6%, 2: 39.9%, 4: 63.6%)
